- Test system: NCI-H358 cells containing homozygous KRAS-G12C activating mutation (p-ERK)
- Test context: Homo sapiens, NCI-H358, 2 h, read-out: G12C H358 IC50 (nM)
Attribute measured: IC50 (nM)

I. CC1(O)CCCCN(c2nc(OC[C@@]34CCCN3C[C@H](F)C4)nc3c(F)c(-c4cc(O)cc5cccc(Cl)c45)c(F)cc23)C1 (single isomer, unassigned)
II. CC1(O)CN(c2nc(OC[C@@]34CCCN3C[C@H](F)C4)nc3c(F)c(-c4cc(O)cc5cccc(Cl)c45)c(F)cc23)CCC1F (stereo partly drawn)
Which has the higher IC50, I or II ? Response format: the label of the selected entry.
I
(I: 3580 nM, II: 118 nM)

----------
- Target: Recombinant KRAS-G12V (SEQ ID NO: 3) (Homo sapiens, UniProt P01116, G12V)
- Sequence (P01116 with tags, fused parts or gaps isoform P01116-2 G12V): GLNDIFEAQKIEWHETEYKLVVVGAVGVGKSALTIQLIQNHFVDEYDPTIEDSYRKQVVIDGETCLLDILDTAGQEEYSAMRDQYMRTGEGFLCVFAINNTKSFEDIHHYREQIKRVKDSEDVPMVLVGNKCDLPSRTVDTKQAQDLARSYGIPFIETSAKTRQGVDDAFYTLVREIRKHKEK
- Assay procedure: SOS-catalyzed guanine nucleotide exchange (GNE) assay, KRAS-G12V
pIC50: −log10 of the molar value.
Attribute measured: pIC50

P. C#Cc1cccc2cccc(-c3c(F)cc4c(N5CCC[C@](C)(O)C5)nc(OC[C@@]56CCCN5C[C@H](F)C6)nc4c3F)c12 (single isomer, unassigned) [Ex-46]
Q. C#Cc1cccc2cc(O)cc(-c3c(F)cc4c(N5CCC[C@@](C)(O)C5)nc(OCC5(CN(C)C)CC5)nc4c3F)c12 (single isomer, unassigned) [Ex-11]
R. Cc1cc2[nH]ncc2c(-c2c(F)cc3c(N4CCOC[C@@](C)(O)C4)nc(OC[C@@]45CCCN4C[C@H](F)C5)nc3c2F)c1C(F)(F)F [Ex-41]
List the 3 entries from lowest pIC50 to highest pIC50 value. // respond by listing labels in the order requested
P, R, Q
(P: 6.77, R: 7.22, Q: 8.70)

----------
- Target: G13D (Homo sapiens, UniProt P01116, G13D)
- Sequence (P01116 1-188 isoform P01116-2 G13D): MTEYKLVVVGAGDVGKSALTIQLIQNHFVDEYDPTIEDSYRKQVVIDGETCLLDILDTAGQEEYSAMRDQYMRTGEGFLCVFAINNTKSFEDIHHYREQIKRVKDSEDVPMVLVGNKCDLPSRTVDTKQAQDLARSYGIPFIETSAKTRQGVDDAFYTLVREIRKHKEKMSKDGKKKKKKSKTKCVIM
- Assay procedure: Guanine nucleotide exchange (GNE) assay, G13D
Attribute measured: IC50 (nM)

* C#Cc1cccc2cc(O)cc(-c3cnc4c(N5CCC[C@@](C)(O)C5)nc(OCC5(CN(C)C)CC5)nc4c3)c12 | 129

1. C#Cc1cccc2cc(O)cc(-c3c(F)cc4c(N5CCC[C@@](C)(O)C5)nc(OCC5(CN(C)C)CC5)nc4c3F)c12 (single isomer, unassigned)
2. CN(C)CC1(COc2nc(N3CCCC(O)CC3)c3cc(Cl)c(-c4ccc(F)c5sc(N)nc45)c(F)c3n2)CC1 (stereo not drawn)
Quick one: lower IC50, 1 or 2 ? Response format: the label of the selected entry.
1
(1: 2 nM, 2: 341 nM)

P. C#Cc1cccc2cc(O)cc(-c3ncc4c(N5CCC[C@@](C)(O)C5)nc(OCC5(CN(C)C)CC5)nc4c3F)c12
Q. CC1(O)CN(c2nc(OC[C@@]34CCCN3C[C@H](F)C4)nc3c(F)c(-c4cc(O)cc5cccc(Cl)c45)c(F)cc23)CCC1(F)F (stereo partly drawn)
R. Cc1cc2[nH]ncc2c(-c2c(F)cc3c(N4CCC[C@@](C)(O)C4)nc(OCC4(CN5CC[C@@H](F)C5)CC4)nc3c2F)c1C
S. CC1(O)CCCN(c2nc(OC[C@@]34CCCN3C[C@H](F)C4)nc3c(F)c(-c4cc(O)cc5cccc(Cl)c45)c(F)cc23)C1 (stereo partly drawn)
T. C#Cc1cccc2cc(O)cc(-c3c(F)cc4c(N5CCCC(O)(CO)C5)nc(OC[C@@]56CCCN5C[C@H](F)C6)nc4c3F)c12 (stereo partly drawn)
Your job: order these 5 records by IC50, ascending. // respond by listing labels in the order requested
P, T, S, Q, R

1. C#Cc1cccc2cc(O)cc(-c3ncc4c(N5CCC[C@@](C)(O)C5)nc(OC[C@]5(CN(C)C)CC5(F)F)nc4c3F)c12
2. Oc1cc(-c2c(F)cc3c(N4CCCC(O)(C(F)(F)F)C4)nc(OC[C@@]45CCCN4C[C@H](F)C5)nc3c2F)c2c(Cl)cccc2c1 (single isomer, unassigned)
3. CC1(O)CN(c2nc(OC[C@@]34CCCN3C[C@H](F)C4)nc3c(F)c(-c4cc(O)cc5cccc(Cl)c45)c(F)cc23)CCC1F (stereo partly drawn)
4. Oc1cc(-c2c(F)cc3c(N4CCCCC(O)C4)nc(OC[C@@]45CCCN4C[C@H](F)C5)nc3c2F)c2c(Cl)cccc2c1 (stereo partly drawn)
5. C#Cc1cccc2cc(O)cc(-c3c(F)cc4c(N5CCC[C@@](C)(O)C5)nc(OC[C@@]56CCCN5C[C@H](F)C6)nc4c3F)c12
Your job: order these 5 records by IC50, ascending. // respond by listing labels in the order requested
1, 5, 3, 4, 2
(1: 1 nM, 5: 4 nM, 3: 16 nM, 4: 441 nM, 2: 777 nM)
